# experimental-system: T1, rh integrin α4β7 (R&D Systems #5397-A30) (human, UniProt P13612 34-970; P26010 20-723)
# T1 construct: bought; coated on a nickel coated plate; also called immobilized α4β7; immobilized α4β7 integrin protein
# experiment-description: competition ELISA vs MAdCAM-1
Bridge positions count the residues as written; N and C are the ends. Square brackets hold non-standard residues; d marks the D form. Phe(4-COOH) = N[C@@H](Cc1ccc(C(=O)O)cc1)C(=O)O; Phe(4-tBu) = CC(C)(C)c1ccc(C[C@H](N)C(=O)O)cc1; NMeR = CN[C@@H](CCCNC(=N)N)C(=O)O; β3hE = N[C@@H](CCC(=O)O)CC(=O)O; NMeK = CN[C@@H](CCCCN)C(=O)O; Pen = CC(C)(S)[C@H](N)C(=O)O
quantity-measured: IC50

Ac-[Pen][NMeR]SDTL[Pen][Phe(4-COOH)][β3hE][NMeK]-NH2 (disulfide 1-7; not fully specified (residue 10); printed as (Ac Pen N-Me-R S D T L Pen F(4-COOH) b-H-E N-Me-K NH2)2 DIG, disulfide Pen-Pen; also: homodimer (…)2 DIG via Lys10 NZ) [SEQ ID NO: 148]: ≤ 10 nM
Ac-[Pen][NMeR]SDTL[Pen][Phe(4-tBu)][β3hE][dK]-NH2 (disulfide 1-7; SMILES CC(=O)N[C@@H]1C(=O)N(C)[C@@H](CCCNC(=N)N)C(=O)N[C@@H](CO)C(=O)N[C@@H](CC(=O)O)C(=O)N[C@@H]([C@@H](C)O)C(=O)N[C@@H](CC(C)C)C(=O)N[C@H](C(=O)N[C@@H](Cc2ccc(C(C)(C)C)cc2)C(=O)N[C@@H](CCC(=O)O)CC(=O)N[C@H](CCCCN)C(N)=O)C(C)(C)SSC1(C)C) [SEQ ID NO: 153]: > 10 nM

Data origin: patent US20220162261A1
